The measurements presented in this section are drawn from paper PMC9364363.

system: M. intracellulare; test: microbe, parasite or virus in culture; format: cell-based, Mycobacterium intracellulare; conditions: Mycobacterium intracellulare, 168 h, read-out: IC50 M. intracellulare
Would you kindly list IC50 for each of these compounds?

Example compounds with recorded IC50:
>>> result("Cc1nc2sc3ccccc3n2c1C(=O)N1CCN(Cc2cn(-c3cccc(Cl)c3)nn2)CC1")
"98.8 µM"
>>> result("CCCCCCCCCc1cn(CCN2CCN(C(=O)c3c(C)nc4sccn34)CC2)nn1")
"63.4 µM"
>>> result("Cc1nc2sccn2c1C(=O)N1CCN(CCn2cc(-c3ccc(C(C)(C)C)cc3)nn2)CC1")
"119 µM"
>>> result("Cc1nc2sc3ccccc3n2c1C(=O)N1CCN(CCn2cc(-c3ccc(C(C)(C)C)cc3)nn2)CC1")
"> 128 µM"
>>> result("Cc1ccc(-n2cc(CN3CCN(C(=O)c4c(C)nc5sc6ccccc6n45)CC3)nn2)cc1C")
"> 128 µM"

Count: 3. Required value per item: IC50.
1. Cc1nc2sc3ccccc3n2c1C(=O)N1CCN(Cc2cn(-c3ccc([N+](=O)[O-])cc3)nn2)CC1
2. Cc1nc2sc3ccccc3n2c1C(=O)N1CCN(Cc2cn(-c3cccc([N+](=O)[O-])c3)nn2)CC1
3. Cc1nc2sccn2c1C(=O)N1CCN(CCn2cc(CSc3nc4ccccc4[nH]3)nn2)CC1

output:
1: > 128 µM; 2: > 128 µM; 3: > 128 µM
